- Tested on: Staphylococcus aureus
- EXPERIMENT SUMMARY: Antibacterial activity against methicillin-sensitive Staphylococcus aureus ATCC 29213 by broth microdilution method
- Format: functional

[
  {
    "COMPOUND": "CC[C@H]1OC(=O)[C@H](C)[C@@H](O[C@H]2C[C@@](C)(OC)[C@@H](O[C@@H]3O[C@H](C)[C@@H](O)[C@H](N(C)C)[C@H]3O)[C@H](C)O2)[C@H](C)[C@@H](O[C@@H]2O[C@H](C)C[C@H](N(C)C)[C@H]2O)[C@@](C)(OC)C[C@@H](C)C(=O)[C@H](C)[C@@H](O)[C@]1(C)O",
    "VALUE COMPARATOR": "=",
    "MIC, µg/mL": 4
  },
  {
    "COMPOUND": "CC[C@H]1OC(=O)[C@H](C)[C@@H](O[C@H]2C[C@@](C)(OC)[C@@H](O[C@@H]3O[C@H](C)[C@@H](OCc4ccccc4)[C@H](N(C)C)[C@H]3OC(=O)c3ccccc3)[C@H](C)O2)[C@H](C)[C@@H](O[C@@H]2O[C@H](C)C[C@H](N(C)C)[C@H]2O)[C@@](C)(OC)C[C@@H](C)C(=O)[C@H](C)[C@H]2OC(=O)O[C@@]21C",
    "VALUE COMPARATOR": ">",
    "MIC, µg/mL": 32
  },
  {
    "COMPOUND": "CC[C@H]1OC(=O)[C@H](C)[C@@H](O[C@H]2C[C@@](C)(OC)[C@@H](O[C@@H]3O[C@H](C)[C@@H](OCc4ccccc4)[C@H](N(C)C)[C@H]3OC(=O)c3ccccc3)[C@H](C)O2)[C@H](C)[C@@H](O[C@@H]2O[C@H](C)C[C@H](N(C)C)[C@H]2O)[C@@](C)(OC)C[C@@H](C)C(=O)[C@H](C)[C@@H](O)[C@]1(C)O",
    "VALUE COMPARATOR": ">",
    "MIC, µg/mL": 32
  },
  {
    "COMPOUND": "CC[C@H]1OC(=O)[C@H](C)C(=O)[C@H](C)[C@@H](O[C@@H]2O[C@H](C)C[C@H](N(C)C)[C@H]2O)[C@](C)(OC)C[C@@H](C)C(=O)[C@H](C)[C@H]2N(CCCCn3cnc(-c4cccnc4)c3)C(=O)O[C@]12C [TELITHROMYCIN]",
    "VALUE COMPARATOR": "≤",
    "MIC, µg/mL": 2
  },
  {
    "COMPOUND": "CC[C@H]1OC(=O)[C@H](C)[C@@H](O[C@H]2C[C@@](C)(OC)[C@@H](O[C@@H]3O[C@H](C)[C@@H](O)[C@H](N(C)C)[C@H]3OC(=O)c3ccccc3)[C@H](C)O2)[C@H](C)[C@@H](O[C@@H]2O[C@H](C)C[C@H](N(C)C)[C@H]2O)[C@@](C)(OC)C[C@@H](C)C(=O)[C@H](C)[C@@H](O)[C@]1(C)O",
    "VALUE COMPARATOR": "=",
    "MIC, µg/mL": 16
  },
  {
    "COMPOUND": "CC[C@H]1OC(=O)[C@H](C)[C@@H](O[C@H]2C[C@@](C)(OC)[C@@H](O[C@@H]3O[C@H](C)[C@@H](O)[C@H](N(C)C)[C@H]3OC(=O)c3ccccc3)[C@H](C)O2)[C@H](C)[C@@H](O[C@@H]2O[C@H](C)C[C@H](N(C)C)[C@H]2O)[C@@](C)(OC)C[C@@H](C)C(=O)[C@H](C)[C@H]2OC(=O)O[C@@]21C",
    "VALUE COMPARATOR": "=",
    "MIC, µg/mL": 2
  },
  {
    "COMPOUND": "CC[C@H]1OC(=O)[C@H](C)[C@@H](O[C@H]2C[C@@](C)(OC)[C@@H](O[C@@H]3O[C@H](C)[C@@H](O)[C@H](N(C)C)[C@H]3OC(=O)c3ccccc3)[C@H](C)O2)[C@H](C)[C@@H](O[C@@H]2O[C@H](C)C[C@H](N(C)C)[C@H]2O)[C@@](C)(OC)C[C@@H](C)C(=O)/C(C)=C/[C@]1(C)O",
    "VALUE COMPARATOR": ">",
    "MIC, µg/mL": 32
  },
  {
    "COMPOUND": "CC[C@H]1OC(=O)[C@H](C)[C@@H](O[C@H]2C[C@@](C)(OC)[C@@H](O[C@@H]3O[C@H](C)[C@@H](OCc4ccccc4)[C@H](N(C)C)[C@H]3O)[C@H](C)O2)[C@H](C)[C@@H](O[C@@H]2O[C@H](C)C[C@H](N(C)C)[C@H]2O)[C@@](C)(OC)C[C@@H](C)C(=O)[C@H](C)[C@H]2OC(=O)O[C@@]21C",
    "VALUE COMPARATOR": "=",
    "MIC, µg/mL": 16
  }
]

Entry source: ChEMBL document CHEMBL2440040
